Assay: NCI Yeast Anticancer Drug Screen. Data for the cln2 rad14 strain (AID 165);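 further: 0% = growth equal to vehicle treated cultures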
Conditions: S. cerevisiae cln2 rad14 strain, at 50.0 µM
This is part of a sample that, as a whole, favours compounds with a hit. Of some 79,000 tested, about 15% had one in any assay. Calls of active or inactive are those of the source. No stated cut-off is given here; in the data, active means growth inhibition above about 70%; inactive means the rest.
Labels: active, inactive

Compound | Discrete label
OCc1c(CO)c(-c2ccc(Cl)c(Cl)c2)n2c1CCC2 | inactive
COC(=O)C1(CCC(C)=O)CCC(C)C1=O (stereo unspecified) | inactive
CCCCCCCCCCCCCCCC[N+](C)(C)CCNC(C)=O | active
COc1ccc(CCNC(=S)N/C=C(\C#N)S(=O)(=O)c2ccc(C)cc2)cc1OC | inactive
O=C1C(=O)c2ccccc2C(O)=C1Br | inactive
CC(=O)NC(CCCN)C(=O)NCc1ccccc1 (stereo unspecified) | inactive

* * *

Assay: NCI Yeast Anticancer Drug Screen. Data for the rad50 strain (AID 155);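 further: 0% = growth of vehicle-only cultures of the same strain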
Conditions: S. cerevisiae rad50 strain growth inhibition; at 50.0 µM
This is part of a sample that, as a whole, favours compounds with a hit. Of some 79,000 tested, about 15% had one in any assay. Calls of active or inactive are those of the source. No stated cut-off is given here; in the data, active means growth inhibition above about 70%; inactive means the rest.
Outcomes: Yes for active, No for inactive

Compound | Discrete label
C[n+]1ccc2c(Br)cccc2c1 | No
CC1CNCC(C)N1C(=O)c1ccccc1 (stereo not given) | No
C/C(CC(c1ccccc1)c1ccccc1)=N\Nc1ccc([N+](=O)[O-])cc1[N+](=O)[O-] | No
C=C(C)C(=O)O[C@@H]1C[C@@]2(C)O[C@@H]2C[C@H](O)/C(C)=C/[C@H]2OC(=O)C(=C)[C@@H]21 | No
COc1cc(C(=O)C(O)c2cc(OC)c(OC)c(OC)c2)cc(OC)c1OC (stereo not given) | No
Cc1ccc(S(=O)(=O)N(CCCc2c(Cl)nc(N)nc2Cc2ccccc2)c2ccccc2)cc1 | No
Nc1ccc(S(=O)(=O)O)c(N)c1 | No
CCCCCCCCCCCCNC(=S)N/N=C/c1ccc(OC)cc1 | No
Cn1c(=S)c2[nH]c(SCCCc3ccccc3)nc2n(C)c1=O | No
CC1(C)C=C(C(Br)c2cccc(Cl)c2)C(=O)c2ccccc21 (stereo not given) | Yes
c1ccc(-c2nnc(-c3ccc4ccccc4c3)o2)cc1 | No
O=[N+]([O-])c1cc(Cl)ccc1NC(Nc1ccc(Cl)cc1[N+](=O)[O-])C(Cl)(Cl)Cl | No
CC(O)C(=O)N1CCOCC1 (stereo not given) | No
O=C(Cc1cccc(CC(=O)c2ccccc2)n1)c1ccccc1 | No
CCOC(=O)CCC1(CCC(=O)OCC)CCCCCCCCC(CCC(=O)OCC)(CCC(=O)OCC)C(=O)C1=O | No
CCCCCOc1nc2c(c(=O)n(C)c(=O)n2C)n1C | No
CC1C(C)C1(c1ccccc1)C(C)(C)O (stereo not given) | No
Cc1ccc([Se](=C(C(=O)c2ccccc2)C(=O)c2ccccc2)c2ccc(C)cc2)cc1 | Yes
O=C1c2ccccc2C(=O)c2c3c(cc([N+](=O)[O-])c21)OCO3 | No
O=C(Oc1ccc2ccccc2c1CN1CCOCC1)c1ccc([N+](=O)[O-])cc1 | No
O=C(Nc1nccs1)Nc1cc(F)ccc1F | No
O=C1OC(c2ccc(O)c(-c3ccccc3)c2)(c2ccc(O)c(-c3ccccc3)c2)c2c(Cl)c(Cl)c(Cl)c(Cl)c21 | No
COc1ccc2c(c1)OC(C)(C)c1c-2n(C)c2c(F)cccc2c1=O | No
CC(C)(C)OC(=O)c1cccc(Br)c1 | No
Cc1ccc(Cc2nn(C)c(=O)n2-n2cccc2)cc1 | No
COCC(C)(c1cn(C)c2ccccc12)c1cn(C)c2ccccc12 | No
CCOC(=O)C1=C(Nc2ccc(F)cc2)C(=O)N(CC)C1 | No
Clc1ccc(-c2nc(CSc3ccccn3)cs2)cc1 | No
CCN(c1ccccc1)S(=O)(=O)c1ccccc1N | No
COc1ccc(/C(Cl)=C(\CNc2ccccn2)c2ccccc2)cc1OC | No
Cc1c(F)cc(I)cc1[N+](=O)[O-] | No
COc1cc2c(cc1O)CN1Cc3cc(O)c(OC)cc3C2C1 | No
COc1cc2cnc(-c3ccncc3)c(O)c2cc1OC | No
C=CCN1C(=O)/C(=C/c2ccc(OCC(=O)O)cc2)SC1=S | No
CCOC1OC(C(O)CO)C(O)C(O)C1O (stereo not given) | No
Cc1ccccc1OCC(O)COC(=O)CCS(=O)(=O)O (stereo not given) | No
O=c1n(-c2ccccc2)c(=O)n2n1C1C3C4C5C1C5C2C43 (stereo not given) | No
Cc1ccc([N+](=O)[O-])cc1NC(=O)C(=O)C1CCC2=C(Sc3ccccc3N2)C1=O (stereo not given) | No
NC(=O)CO | No
CC(=O)Oc1cc2c(cc1C(NC(N)=O)c1ccc3c(c1)OCO3)OCO2 (stereo not given) | No
O=C1C2CN(Cc3ccccc3)CC2C(=O)N1c1ccccc1 (stereo not given) | No
C=CCNC(=S)N(Cc1ccccc1)Cc1ccccc1 | Yes
CCCCCn1[nH]nc(C(=O)OC)c1=O (tested in a mixture with another compound) | No
O=c1c2cc([N+](=O)[O-])ccc2c2ccc([N+](=O)[O-])cc2c(=O)n1-c1ccc2c(c1)Cc1ccccc1-2 | No
COc1ccc2c(c1OC)OC1CNc3cc(C)c(C)cc3N=C1C2 (stereo not given) | No

* * *

In this section, each of the compounds is paired with its reported growth inhibition.
Experiment: NCI Yeast Anticancer Drug Screen. Data for the bub3 strain (AID 167)
Conditions: S. cerevisiae bub3 mutant strain, at 50.0 µM, active compounds read high
About 79,000 compounds went through this panel and 15% of them were active in at least one assay; those are over-represented in the sample as a whole.

Compound | Readout units | growth inhibition
O=C1c2ccc3c([nH]c4ccccc43)c2C(=O)N1c1ccccc1 | % | 13.3
COCCOCCOCCC(=O)NC1CC2CCC1(C)C2(C)C (stereo not given) | % | 23.7
O=C(N/N=C/c1cc(-c2ccccc2Cl)c(-c2ccccc2Cl)o1)c1ccncc1 | % | 26.7
COc1ccc(N=C(N)N=C(N)N)cc1 | % | -2.65
O=S1(=O)OCCOS(=O)(=O)C1I | % | -21.5
CCOC(=O)C1=C(C)N(C2OC(COC(=O)c3ccccc3)C(OC(=O)c3ccccc3)C2OC(=O)c2ccccc2)C(=S)NC1c1ccccc1 (stereo not given) | % | -4.85
CC1=C[P+](c2ccccc2)(c2ccccc2)C=C(C)O1 | % | 4.5
Oc1[nH]c2ccccc2c1N=Nc1nc(-c2ccc(Br)cc2)cs1 | % | 12
Cc1ccccc1N(C)S(=O)(=O)c1ccccc1[N+](=O)[O-] | % | 20.2
C/C=C/C=C/C=N\O | % | -1.45
CS(=O)(=O)c1[nH]nc2[nH]c(=O)[nH]c(=O)c12 | % | -28.8
CC(=O)C1CCCCCCC1=O (stereo not given) | % | -11.8
N#Cc1c(F)cccc1N1CCSCC1 | % | 11.5
Cc1cc(Cl)c(C)c(C)c1O | % | 1.25
CC(C)=CCCc1cc(-c2cc(CCC=C(C)C)nc(N)n2)nc(N)n1 | % | -22.9
CC(=O)/C=C/C1=C(C)CCCC1(C)C (tested in a mixture with another compound) | % | 24.3
C/C(CCc1cccc([N+](=O)[O-])c1)=N\NC(N)=O | % | 7.4
CCCCS(=O)(=O)CCC(N)C(=O)O (stereo not given) | % | -4.75
Cc1ccc(O)c(C(=O)c2ccccc2C(=O)O)c1 | % | 4.9
N=C(N)c1ccncc1 | % | 4.75
CN(C)CCNC(=O)c1ccc(Cl)c2cc3ccccc3nc12 | % | 15.7
N#Cc1ccc(-n2cccc2)cc1 | % | -6.2
CC(C)=Cc1cc(C(=O)Nc2ccc(Cl)c(Cl)c2)nc(N)n1 | % | -41.8
OCCCNc1nc2cc(Br)ccc2c2ccc(Br)cc12 | % | 0.1
COc1ccc(C2SCC(=O)N2c2nncs2)cc1F (stereo not given) | % | 12.6

* * *

Assay: NCI Yeast Anticancer Drug Screen. Data for the mlh1 rad18 strain (AID 175)
Settings: S. cerevisiae mlh1 rad18 strain growth inhibition; at 50.0 µM; active compounds read high
The panel holds about 79,000 compounds, 15% with a hit somewhere; the sample as a whole holds those more often. Calls of active or inactive are those of the source. Rule as the data show it: active = growth inhibition above about 70%; inactive = the rest.
Readout name: growth inhibition

Molecule | Recorded result
CCOC(=O)/C=C/C(=O)OCC | -2.65% (inactive)
COc1ccc(-c2ccc(OC)cc2)cc1 | 3% (inactive)
CC(=O)OC1CC2CCCCC21 (stereo not drawn) | 2.3% (inactive)
Cc1cn(C2CC(N)C(C(=O)NCC(=O)O)O2)c(=O)[nH]c1=O (stereo not drawn) | -26.1% (inactive)
COC(=O)c1cc(Cl)ccc1Br | 43% (inactive)
c1ccc2c(c1)NC(SSC1Nc3ccccc3S1)S2 (stereo not drawn) | 1.65% (inactive)
c1ccc(COc2ccc(CC3SCCCS3)cc2)cc1 | -7.5% (inactive)
CC1=CC[N+](C)(C)C(C(N)=O)C1 (stereo not drawn) | -18.1% (inactive)
Cc1ccc2cccc(OCC(=O)O)c2n1 | 13.3% (inactive)
CC(C)=Cc1cc(C(=O)Nc2ccc(Cl)c(Cl)c2)nc(N)n1 | -32.1% (inactive)
O=C1C=CC(=O)C2C1C21C2CCCC(C2)C2CCCC1C2 (stereo not drawn) | 20.1% (inactive)
CC(=O)Oc1ccc(-c2ccccc2)cc1C(=O)O | 11.6% (inactive)
CCC1C(=O)Nc2ccccc21 (stereo not drawn) | 8.5% (inactive)
